Value source: paper PMC3025356

# target: T1, S100A4 (wild type, full-length) (UniProt P26447 1-101)
# T1 construct: S100A4, wild type, called full-length in the NMR experiment with M111; The tag and the vector are not described; also called Mts1; metastasin; source: E. coli BL21(DE3), purified (Ni-NTA, Superdex 75)
# T1 sequence (P26447 whole entry, one chain of several): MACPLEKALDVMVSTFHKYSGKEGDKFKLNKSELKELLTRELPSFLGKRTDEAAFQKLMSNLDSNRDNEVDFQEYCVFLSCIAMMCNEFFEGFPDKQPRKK
# test.details: stopped-flow Quin-2 fluorescence (Ca2+ dissociation); S100A4 + Ca2+ premixed with peptide or fragment, mixed with 100 μM Quin-2; 100 mM NaCl, 10 mM Hepes, 100 μM Ca2+, pH 7.5, 20 °C (M16^N also in 20 mM NaCl, 20 mM Tris, 1 mM DTT); apparent
# setup.conditions: both partners purified
assay.metric: Kd
Give your result as the value with the unit written after it.

[in] Would you kindly share the measured Kd for Ac-ADAMNREVSSLKNKLRRGDLPFVVPRRMARKG-NH2 (peptide, UniProt P35579-1 1907-1938, looked up, nonmuscle myosin heavy chain IIA (NM-MHC IIA), human, residues A1907-G1938; source: synthetic peptide, bought: Peptide 2.0, Inc) [M32 myosin peptide (NM-MHC IIA A1907-G1938)] ?
[out] 400 nM
